The following compounds are shown together with reported IC50 values.
Assay: Inhibition of GSK3
Quantity measured: IC50 (nM)

> print(dat)
                                   compound  quantity.measured  unit.info  readout.value
1  O=C1NC(=O)C(c2cnc3cccnn23)=C1c1cn2c3c(cccc13)CN(C(=O)N1CCCCC1)CC2 [BISARYLMALEIMIDE 1]               IC50         nM            0.7
2  O=C1NC(=O)C(c2cncc3ccoc23)=C1c1cn2c3c(cccc13)CN(C(=O)N1CCOCC1)CC2 [BISARYLMALEIMIDE 2]               IC50         nM            0.8
3  O=C1NC(=O)C2=C1c1cn(c3ccccc13)CCOCCOCCOCCn1cc2c2ccccc21 [INDOLYLYLMALEIMIDE 2]               IC50         nM             22
4  CC(=O)NC1=NC(=O)/C(=C2\CCNC(=O)c3c2cc(Br)n3C(C)=O)N1 [HYMENIALDISINE 2]               IC50         nM            130
5  O=C1NC(=O)C2=C1c1cn(c3ccccc13)CCOCCOCCOCCn1cc2c2cccnc21 [INDOLYLYLMALEIMIDE 1]               IC50         nM             17
6  O=C1Nc2ccc(Br)cc2/C1=C1/Nc2ccccc2/C1=N\O [INDIRUBIN 2]               IC50         nM              5
7  COc1ccc(Nc2nccc(-c3cnn4ncccc34)n2)cc1OC [PYRAZOLOPYRIDAZINE 2]               IC50         nM             12
8  CC(=O)O/N=C1/C(=C2/C(=O)Nc3cc(Cl)c(Cl)cc32)Nc2ccccc21 [INDIRUBIN 1]               IC50         nM              4

###

Assay: Inhibition of GSK3
pIC50: −log10 of the molar value.
The following molecules are shown together with reported pIC50 values.
Quantity measured: pIC50

> print(dat)
                           substance.smiles  quantity.measured  readout.value
1  CN(C)CCCn1cc(C2=C(c3c[nH]c4ccccc34)C(=O)NC2=O)c2ccccc21              pIC50           6.72
2     COc1cccc(Nc2nccc(-c3cnn4ncccc34)n2)c1              pIC50           8.00
3  CN1CCN(c2cnc(NCCNc3ccc([N+](=O)[O-])c(N)n3)nc2-c2ccc(Cl)cc2Cl)C(=O)C1              pIC50           8.40
